The source made the active and inactive calls.
Kd, Epithelial discoidin domain-containing receptor 1 (Homo sapiens, UniProt Q08345), per-entry values.

Worked set:
- COMPOUND: "FC(F)(F)c1ccc(CNc2ccc(Cc3c[nH]c4ncc(Cl)cc34)cn2)cn1"
  READOUT NAME: "Kd"
  ENDPOINT VALUE: "> 30 µM (inactive)"
- COMPOUND: "O=c1[nH]c([C@@H]2CCCN2)nc2c1oc1ccc(Cl)cc12"
  READOUT NAME: "Kd"
  ENDPOINT VALUE: "> 30 µM (inactive)"
- COMPOUND: "COc1cc(F)c(F)c(Nc2ccc(I)cc2F)c1NS(=O)(=O)C1(C[C@H](O)CO)CC1"
  READOUT NAME: "Kd"
  ENDPOINT VALUE: "> 30 µM (inactive)"
- COMPOUND: "CCc1cc2c(cc1N1CCC(N3CCOCC3)CC1)C(C)(C)c1[nH]c3cc(C#N)ccc3c1C2=O"
  READOUT NAME: "Kd"
  ENDPOINT VALUE: "> 30 µM (inactive)"
- COMPOUND: "O=S(=O)(c1cccc2cnccc12)N1CCCNCC1"
  READOUT NAME: "Kd"
  ENDPOINT VALUE: "> 30 µM (inactive)"
- COMPOUND: "O=C(Nc1ccc(OC(F)(F)F)cc1)c1sccc1NCc1ccnc2ccccc12"
  READOUT NAME: "Kd"
  ENDPOINT VALUE: "> 30 µM (inactive)"
- COMPOUND: "COc1cc(Nc2ncc(F)c(Nc3ccc4c(n3)N(COP(=O)(O)O)C(=O)C(C)(C)O4)n2)cc(OC)c1OC"
  READOUT NAME: "Kd"
  ENDPOINT VALUE: "> 30 µM (inactive)"
- COMPOUND: "Cc1c(NC(=O)OC[C@@H]2COCCN2)cn2ncnc(Nc3ccc4c(cnn4Cc4cccc(F)c4)c3)c12"
  READOUT NAME: "Kd"
  ENDPOINT VALUE: "> 30 µM (inactive)"
- COMPOUND: "COc1cc2ncnc(Nc3ccc(F)c(Cl)c3)c2cc1NC(=O)/C=C/CN1CCCCC1 [DACOMITINIB ANHYDROUS]"
  READOUT NAME: "Kd"
  ENDPOINT VALUE: "> 30 µM (inactive)"
- COMPOUND: "CC1(COc2ccc3c(c2)ncn3-c2ccc3cccc(N4CCC(N)CC4)c3n2)COC1"
  READOUT NAME: "Kd"
  ENDPOINT VALUE: "> 30 µM (inactive)"

Consider the following items and state reported Kd for each.
1. NC(=O)c1ccc(N(C(N)=O)c2c(F)cccc2F)nc1-c1ccc(F)cc1F
2. S=C(NCc1ccc2c(c1)OCO2)N1CCN(c2ncnc3c2oc2ccccc23)CC1
3. c1cc(OCCN2CCCCC2)cc(-c2n[nH]c3ccc(-c4nc[nH]n4)cc23)c1

Output:
1: > 30 µM (inactive); 2: > 30 µM (inactive); 3: > 30 µM (inactive)

Consider the following items and state reported Kd for each.
1. Cn1c(=O)c(F)c(Nc2ccc(I)cc2F)c2c(=O)n(C[C@@H](O)CO)cnc21
2. CNC(=O)c1cc(COc2nnc(Nc3ccc(Cl)cc3)c3ccoc23)ccn1
3. CCc1nc(C(N)=O)c(Nc2ccc(N3CCC(N4CCN(C)CC4)CC3)c(OC)c2)nc1NC1CCOCC1
4. O=S(=O)(c1cccc2c(O)nccc12)N1CCCNCC1 [HYDROXYFASUDIL]
5. CNC(=O)c1ccc(Nc2ncc(C(F)(F)F)c(NCc3nccnc3N(C)S(C)(=O)=O)n2)cc1
6. CN(c1ncccc1CNc1nc(Nc2ccc3c(c2)CC(=O)N3)ncc1C(F)(F)F)S(C)(=O)=O

Output:
["> 30 µM (inactive)", "> 30 µM (inactive)", "> 30 µM (inactive)", "> 30 µM (inactive)", "> 30 µM (inactive)", "> 30 µM (inactive)"]

Consider the following items and state reported Kd for each.
1. C[C@]1(O)C[C@@H](c2nc(-c3ccc4ccc(-c5ccccc5)nc4c3)c3c(N)nccn32)C1
2. Cc1cc(C(=O)Nc2cc(Oc3ccc4nc(NC(=O)C5CC5)cn4n3)ccc2C)n(C)n1
3. C[C@@H]1COC(Nc2ccc3ncnc(Nc4ccc(OCc5nccs5)c(Cl)c4)c3c2)=N1

Output:
["> 30 µM (inactive)", "14.7 µM (active)", "> 30 µM (inactive)"]
